tested on: A673/TR/shEF; assay: cell viability (LOESS-normalised, relative to median of negative controls) (log2 ratio); higher = more viable cells (less compound effect), active = hit call of the paper (over 3 MAD below the median); conditions: 2.5 µM; library screen: screen1; EWS-FLI1 expression: low (doxycycline-induced shRNA knockdown); treatment time: 72 h
The campaign covered roughly 3,200 compounds. About 300 (9.4%) showed activity. What follows is part of a selection rich in actives, with near analogues and random picks from the rest.
Our labelling divides records by cell viability (log2) into ranges: band 1: < 0.07; band 2: ≥ 0.07 and < 0.1; band 3: ≥ 0.1

{"columns": ["molecule", "assay-system", "group"],
 "data": [
  ["CC1(C)C(=O)C=C[C@]2(C)C3CC[C@@]4(C)[C@H](c5ccoc5)OC(=O)[C@H]5O[C@]54[C@]3(C)C(=O)C[C@@H]12 (some centres undefined)", "A673/TR/shEF", "band 3"],
  ["Nc1nc(=O)c2nc(CNc3ccc(C(=O)N[C@@H](CCC(=O)O)C(=O)O)cc3)cnc2[nH]1", "A673/TR/shEF", "band 2"],
  ["CC(C)CCC[C@@H](C)C1CC[C@H]2[C@@H]3CCC4=CC(=O)C=C[C@]4(C)[C@H]3CC[C@]12C (some centres undefined)", "A673/TR/shEF", "band 1"],
  ["O=C1NC(=O)C(c2ccccc2)(c2ccccc2)N1", "A673/TR/shEF", "band 3"],
  ["CC(C)=CCc1c2c(c3occ(-c4ccc(O)c(O)c4)c(=O)c3c1O)C=CC(C)(C)O2", "A673/TR/shEF", "band 3"],
  ["COc1cc(C(=O)O)c(O)c2c1OCO2", "A673/TR/shEF", "band 1"],
  ["CCCCCCCCCCCC1=C(O)C(=O)C=C(O)C1=O", "A673/TR/shEF", "band 1"],
  ["O=C(NC(C(=O)N1CCCCC1)=C1CCCCC1)c1ccccc1", "A673/TR/shEF", "band 3"],
  ["Cc1ccc(C(=O)NCCSc2ccccn2)cc1", "A673/TR/shEF", "band 1"],
  ["CCC1(c2ccccc2)C(=O)NCNC1=O", "A673/TR/shEF", "band 3"],
  ["O=C(O)CCCCCCCn1ccnc1", "A673/TR/shEF", "band 2"],
  ["CC(=O)c1c(C(C)=O)c(C)n(-c2cc(C)cc(C)c2)c1C", "A673/TR/shEF", "band 2"],
  ["COCCN1C(=O)C(=Cc2c(Cl)cccc2Cl)SC1=S", "A673/TR/shEF", "band 3"]
]}

###

system: A673/TR/shEF; test: cell viability (LOESS-normalised, relative to median of negative controls) (log2 ratio); higher = more viable cells (less compound effect), active = hit call of the paper (over 3 MAD below the median); settings: 0.103 µM; library screen: screen3; EWS-FLI1 expression: high (no doxycycline); treatment time: 72 h
About 300 (9.4%) of roughly 3,200 compounds showed activity. The list comes from a sample in which actives are over-represented; it also holds close analogues and randomly drawn compounds.
Outcomes: t for active, f for inactive

{"columns": ["compound", "group"],
 "data": [
  ["Clc1ccc(COC(Cn2ccnc2)c2ccc(Cl)cc2Cl)cc1 (stereo not given)", "f"],
  ["C[C@H](Cn1cnc2c(N)ncnc21)OCP(=O)(O)O", "f"],
  ["COc1ncc(-c2ccc3nccc(-c4ccnnc4)c3c2)cc1NS(=O)(=O)c1ccc(F)cc1F", "t"],
  ["CN1CC[C@H](c2c(O)cc(O)c3c(=O)cc(-c4ccccc4Cl)oc23)[C@H](O)C1", "t"],
  ["Clc1ccc(COC(Cn2ccnc2)c2ccc(Cl)cc2Cl)c(Cl)c1 (stereo not given)", "f"]
]}

###

tested on: A673/TR/shEF; assay: cell viability (LOESS-normalised, relative to median of negative controls) (log2 ratio); higher = more viable cells (less compound effect), active = hit call of the paper (over 3 MAD below the median); conditions: 0.25 µM; library screen: screen1; EWS-FLI1 expression: low (doxycycline-induced shRNA knockdown); treatment time: 72 h
Hit rate of the full screen: of about 3,200 compounds, about 300 (9.4%) showed activity. The full list was thinned out, with actives kept by preference.

{"columns": ["molecule", "assay-system", "cell viability (log2)"],
 "data": [
  ["COCCOC(=O)C1=C(C)NC2=C(C(=O)CCC2)C1c1ccc(C)s1 (stereo unspecified)", "A673/TR/shEF", 0.0631],
  ["COc1cc2ccc(=O)oc2c(OC)c1OC", "A673/TR/shEF", 0.119],
  ["CCCCC1C(=O)N(c2ccccc2)N(c2ccc(O)cc2)C1=O (stereo unspecified)", "A673/TR/shEF", 0.0945],
  ["CC(C(=O)O)N1C(=O)C(=Cc2cccnc2)SC1=S (stereo unspecified)", "A673/TR/shEF", 0.0107],
  ["CC1OC(OC2C(O)COC(OC3C(C)OC(OC4C(OC(=O)C56CCC(C)(C)CC5C5=CCC7C8(C)CCC(OC9OC(CO)C(O)C(O)C9O)C(C)(C)C8CCC7(C)C5(C)CC6O)OCC(O)C4O)C(O)C3O)C2O)C(O)C(O)C1O (stereo unspecified)", "A673/TR/shEF", 0.0258],
  ["CC(=O)N[C@@H]1[C@@H](O)[C@H](O)[C@@H](CO)O[C@H]1O", "A673/TR/shEF", 0.0648],
  ["CC1=C(C(=O)OC2CCCC2)C(c2coc3ccccc3c2=O)C2=C(CC(C)(C)CC2=O)N1 (stereo unspecified)", "A673/TR/shEF", 0.0738],
  ["CC1CCC2(CO)CCC3(C)C(=CCC4C5(C)CCC(O)C(C)(C)C5CCC43C)C2C1C (stereo unspecified)", "A673/TR/shEF", -0.0265],
  ["CC(C)N1C(=O)C(=Cc2ccccc2F)SC1=S", "A673/TR/shEF", 0.0324],
  ["N/C(=N/c1nc2ccccc2o1)NC(=O)Nc1ccccc1", "A673/TR/shEF", 0.11],
  ["COc1ccc(OC)c(CN2CCN(Cc3c[nH]c4ccccc34)CC2)c1", "A673/TR/shEF", 0.0685],
  ["COc1ccc(/C=C/C(=O)O)cc1OC", "A673/TR/shEF", -0.00138],
  ["O=C(Nc1ccccn1)c1cc(-c2ccccc2)nc2ccccc12", "A673/TR/shEF", -0.00975],
  ["C/C1=C\\CC/C(C)=C/CC(C)(C)/C=C/C1", "A673/TR/shEF", 0.0875],
  ["CC(=O)O[C@H]1CC[C@]2(C)[C@H]3C(=O)C=C4[C@@H]5C[C@@](C)(C(=O)O)CC[C@]5(C)CC[C@@]4(C)[C@]3(C)CC[C@H]2C1(C)C", "A673/TR/shEF", 0.011],
  ["COC(=O)c1cc(OC)c(=O)c2c(OC)c(OC)ccc2c1", "A673/TR/shEF", 0.0503],
  ["C=C(c1ccccc1)c1cc(O)c(OC)cc1O", "A673/TR/shEF", -0.00424],
  ["Clc1ccc(COC(Cn2ccnc2)c2ccc(Cl)cc2Cl)c(Cl)c1 (stereo unspecified)", "A673/TR/shEF", -0.0145],
  ["CC1=C(/C=C/C(C)=C/C=C/C(C)=C/C=C/C=C(C)/C=C/C=C(C)/C=C/[C@@]23O[C@]2(C)C[C@@H](O)CC3(C)C)C(C)(C)C[C@H](O)C1", "A673/TR/shEF", 0.0984],
  ["COC(=O)C[C@H]1C(C)(C)[C@H](O)[C@@H]2CC3=C4CC(O)O[C@@H](c5ccoc5)[C@]4(C)CCC3[C@@]1(C)C2=O (stereo partly specified)", "A673/TR/shEF", 0.183],
  ["N#CC(C#N)=C(N)/C(C#N)=C/c1ccc2[nH]ccc2c1", "A673/TR/shEF", 0.0358],
  ["Cc1cc(Nc2ccc(O)cc2)n2c(nc3ccccc32)c1C#N", "A673/TR/shEF", 0.0759],
  ["NCC1COc2ccccc2O1 (stereo unspecified)", "A673/TR/shEF", -0.0116],
  ["CCCCC1C(=O)N(c2ccccc2)N(c2ccccc2)C1=O", "A673/TR/shEF", 0.109],
  ["COc1cc(O)c(C(=O)c2ccccc2)c(OC)c1", "A673/TR/shEF", 0.0186],
  ["O=C(Oc1cc(O)cc2c1CC(OC(=O)c1cc(O)c(O)c(O)c1)C(c1ccc(O)c(O)c1)O2)c1cc(O)c(O)c(O)c1 (stereo unspecified)", "A673/TR/shEF", -0.00743]
]}
